- targetOrSystem: Matrix metalloproteinase-9 (Homo sapiens, UniProt P14780)
- Sequence (P14780 whole entry): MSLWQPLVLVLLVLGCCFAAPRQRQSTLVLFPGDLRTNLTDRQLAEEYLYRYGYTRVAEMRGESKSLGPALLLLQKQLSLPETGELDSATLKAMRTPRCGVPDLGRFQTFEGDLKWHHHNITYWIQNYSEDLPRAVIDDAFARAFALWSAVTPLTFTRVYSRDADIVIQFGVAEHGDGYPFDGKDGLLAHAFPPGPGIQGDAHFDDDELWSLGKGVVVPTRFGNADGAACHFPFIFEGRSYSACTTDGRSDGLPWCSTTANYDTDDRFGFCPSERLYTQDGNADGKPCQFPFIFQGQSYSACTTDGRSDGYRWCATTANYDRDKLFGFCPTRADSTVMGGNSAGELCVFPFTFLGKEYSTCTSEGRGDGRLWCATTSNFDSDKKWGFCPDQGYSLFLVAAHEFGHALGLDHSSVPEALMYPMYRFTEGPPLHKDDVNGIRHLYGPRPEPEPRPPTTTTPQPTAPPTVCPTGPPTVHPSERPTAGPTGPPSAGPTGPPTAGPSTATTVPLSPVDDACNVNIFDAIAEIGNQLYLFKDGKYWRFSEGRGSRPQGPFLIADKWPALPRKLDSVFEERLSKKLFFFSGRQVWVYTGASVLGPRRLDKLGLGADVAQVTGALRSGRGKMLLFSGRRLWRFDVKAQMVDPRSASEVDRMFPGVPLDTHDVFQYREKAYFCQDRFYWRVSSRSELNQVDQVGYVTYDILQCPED
- procedureDetails: Inhibition of MMP9 at 10 uM
Lab note: compare inhibition against 40%. Equal or greater, write YES. Smaller, write NO.

Worked examples, 4 compounds total:
compound	assignedLabel
CC#CCOc1ccc(SC2(C(=O)OCC)CCN(C(=O)OC(C)(C)C)CC2)cc1	NO
O=C(NO)C1(S(=O)(=O)c2ccc(OCC#CCN3CCOCC3)cc2)CCN(Cc2ccc(Br)cc2)CC1	NO
CC#CCOc1ccc(SC2(C(=O)NO)CCN(C(=O)OC(C)(C)C)CC2)cc1	NO
CC#CCOc1ccc(S(=O)(=O)C2(C(=O)NO)CCN(CC)CC2)cc1	NO

Query :: Entry CCCCCC#CCOc1ccc(S(=O)(=O)C2(C(=O)NO)CCN(Cc3ccc(Br)cc3)CC2)cc1 : is its inhibition no less than 40%?
Result :: YES

Query :: CC#CCOc1ccc(S(=O)(=O)C2(C(=O)NO)CCN(Cc3ccc(Cl)cc3)CC2)cc1 ?
Result :: YES

Query :: CCCCCCC(Sc1ccc(OC)cc1)C(=O)NO (stereo not drawn) ?
Result :: YES
